Form field: EC50 (one value per entry).
molecular target: A/Vietnam/119/2004 (H5N1) inactivated viral preparation (Influenza A virus A/Vietnam/119/2004 (H5N1)); experiment: ELISA, inactivated virus

binder	value_unit	EC50
R2b-D9 (VHH) VHH: QVQLVESGGGLVQPGGSLRLSCLASGSAFSLYTMGWYRQAPGNQRELVAAITSGESTNYADSVKGRFTISRDNAKNTVYLQMNSLKPEDTAVYYCNADPLSTGWGQYSYWGQGTQVTVSS	µg/mL	1.81
R1a-A5 (VHH) VHH: QVQLVESGGGLVQPGGSLRLSCSASGSAVLFSTYPMSWYRQAPGKQRELVAAVTTDGSTSYADYAKGRFTISRDNAKNTVYLQMNSLKPEDTAVYYCNARDGFFNRYDYWGQGTQVTVSS	µg/mL	0.25
R1a-C5 (VHH) VHH: QVQLVESGGGLVQPGGSLRLSCAASNDIFSFYTMGWYLQAIGKQREPVAVIGNGGNTNYAESVKGRFTISRDGAKNTAYLQMNSLKPEDTAVYYCMASGPGGLNVWGQGTQVTVSS	µg/mL	2.89
R1a-B6 (VHH) VHH: QVQLVESGGGLVQPGGSLRLSCAASGSFFSRYRMGWYRQAPGEQRELVASIAYDGSTSYADPVKGRFTISRDNANTVHLQMYSLKPDDTAVYYCNLDPPGILYWGQGTQVTVSS	µg/mL	0.82
R2b-E8 (VHH) VHH: QVQLVESGGGLVQPGGSLRLSCAASGSFFSRYRMGWYRQAPGEQRELVAGITYDDSTNYAGSVKGRFTISRDNAKNTVHLQMNSLKPEDTAVYYCNLNPPGNLYWGQGTQVTVSS	µg/mL	1.83
R2a-G8 (VHH) VHH: QLQLAESGGGLVQAGGSLRLSCAASGSTLNNNAIGWFRQAPGKEREGVSCMNSRDGTTNYADSVKGRFTISRDVAKNTVYLQMNSLKPEDTAVYFCAVKGFAPFLIGCPWGKAEYDYWGQGTQVTVSS	µg/mL	3.36
